System: Escherichia coli TOP10;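 note: peptides expressed intracellularly from a pBAD plasmid library in pooled LB shake-flask culture, induced with 0.3% L-arabinose, DNA abundance read by NGS, three biological replicates, DESeq2 with apeglm shrinkage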
Measurement protocol: shrunken log2 fold change of peptide-encoding DNA abundance (4.5 h post-induction vs induction); higher = less antimicrobial activity (less host growth inhibition)
Condition: time post-induction: 4.5 h; library: site-saturation at positions 5, 18, 19, 20
Please enter Satisfied where shrunken log2 fold change is greater than or equal to 0.03, and Not satisfied where it is lower.

- Sequence code: "RRIRRRPPRLPRPRPRPYMHPRP"
  Class assignment: "Not satisfied"
- Sequence code: "RRIRRRPPRLPRPRPRPENMPRP"
  Class assignment: "Satisfied"
- Sequence code: "RRIRFRPPRLPRPRPRPEPPPRP"
  Class assignment: "Satisfied"
- Sequence code: "RRIRIRPPRLPRPRPRPIDYPRP"
  Class assignment: "Not satisfied"
- Sequence code: "RRIRYRPPRLPRPRPRPKCLPRP"
  Class assignment: "Not satisfied"
- Sequence code: "RRIRRRPPRLPRPRPRPIFMPRP"
  Class assignment: "Satisfied"
- Sequence code: "RRIRGRPPRLPRPRPRPKCMPRP"
  Class assignment: "Satisfied"
- Sequence code: "RRIRLRPPRLPRPRPRPCCGPRP"
  Class assignment: "Not satisfied"
- Sequence code: "RRIRNRPPRLPRPRPRPYHTPRP"
  Class assignment: "Not satisfied"
- Sequence code: "RRIRTRPPRLPRPRPRPSTMPRP"
  Class assignment: "Not satisfied"
- Sequence code: "RRIRKRPPRLPRPRPRPNEDPRP"
  Class assignment: "Not satisfied"
- Sequence code: "RRIRRRPPRLPRPRPRPVSMPRP"
  Class assignment: "Satisfied"
- Sequence code: "RRIRVRPPRLPRPRPRPMWFPRP"
  Class assignment: "Not satisfied"
- Sequence code: "RRIRMRPPRLPRPRPRPDVKPRP"
  Class assignment: "Satisfied"
- Sequence code: "RRIRYRPPRLPRPRPRPKYCPRP"
  Class assignment: "Satisfied"
- Sequence code: "RRIRERPPRLPRPRPRPWYQPRP"
  Class assignment: "Not satisfied"
- Sequence code: "RRIRGRPPRLPRPRPRPGVIPRP"
  Class assignment: "Satisfied"
- Sequence code: "RRIRFRPPRLPRPRPRPYFWPRP"
  Class assignment: "Not satisfied"
- Sequence code: "RRIRSRPPRLPRPRPRPIYKPRP"
  Class assignment: "Not satisfied"
- Sequence code: "RRIRGRPPRLPRPRPRPDMLPRP"
  Class assignment: "Satisfied"
- Sequence code: "RRIRTRPPRLPRPRPRPGKGPRP"
  Class assignment: "Not satisfied"
- Sequence code: "RRIRERPPRLPRPRPRPMCVPRP"
  Class assignment: "Not satisfied"
- Sequence code: "RRIRERPPRLPRPRPRPAADPRP"
  Class assignment: "Satisfied"
- Sequence code: "RRIRRRPPRLPRPRPRPYYFPRP"
  Class assignment: "Not satisfied"
- Sequence code: "RRIRPRPPRLPRPRPRPWRYPRP"
  Class assignment: "Not satisfied"
- Sequence code: "RRIRARPPRLPRPRPRPLKKPRP"
  Class assignment: "Satisfied"
- Sequence code: "RRIRLRPPRLPRPRPRPVTIPRP"
  Class assignment: "Not satisfied"
- Sequence code: "RRIRRRPPRLPRPRPRPAHWPRP"
  Class assignment: "Satisfied"
- Sequence code: "RRIRFRPPRLPRPRPRPPDLPRP"
  Class assignment: "Not satisfied"
- Sequence code: "RRIRKRPPRLPRPRPRPMANPRP"
  Class assignment: "Not satisfied"
- Sequence code: "RRIRDRPPRLPRPRPRPTQIPRP"
  Class assignment: "Satisfied"
- Sequence code: "RRIRLRPPRLPRPRPRPIKAPRP"
  Class assignment: "Not satisfied"
